# System: FGFR3-BAIAP2L1 Ba/F3 cells (Homo sapiens, UniProt P22607)
# Sequence (P22607 23-806 limits assumed, change not shown): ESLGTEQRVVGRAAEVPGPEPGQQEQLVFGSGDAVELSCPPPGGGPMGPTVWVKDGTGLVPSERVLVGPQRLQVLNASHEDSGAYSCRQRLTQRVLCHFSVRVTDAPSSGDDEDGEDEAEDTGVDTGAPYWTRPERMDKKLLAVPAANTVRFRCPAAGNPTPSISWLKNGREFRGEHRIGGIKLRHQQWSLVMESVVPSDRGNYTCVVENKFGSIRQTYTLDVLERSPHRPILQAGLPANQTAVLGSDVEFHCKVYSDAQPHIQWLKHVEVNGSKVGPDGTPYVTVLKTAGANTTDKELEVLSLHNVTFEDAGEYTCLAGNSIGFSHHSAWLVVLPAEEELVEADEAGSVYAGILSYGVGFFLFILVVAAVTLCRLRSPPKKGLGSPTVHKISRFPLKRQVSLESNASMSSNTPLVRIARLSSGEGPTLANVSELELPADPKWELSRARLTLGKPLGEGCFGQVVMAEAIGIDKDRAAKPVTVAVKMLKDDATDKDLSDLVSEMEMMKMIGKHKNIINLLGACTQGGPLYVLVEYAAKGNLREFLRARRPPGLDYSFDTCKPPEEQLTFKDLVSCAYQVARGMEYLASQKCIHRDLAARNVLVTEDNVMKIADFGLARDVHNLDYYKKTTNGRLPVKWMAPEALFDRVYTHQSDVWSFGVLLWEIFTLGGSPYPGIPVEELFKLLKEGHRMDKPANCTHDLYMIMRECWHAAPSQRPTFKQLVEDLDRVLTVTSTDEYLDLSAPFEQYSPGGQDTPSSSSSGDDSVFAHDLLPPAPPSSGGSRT
# Experiment notes: Ba/F3 cell viability assay (CellTiter-Glo 2.0), FGFR3-BAIAP2L1 Ba/F3
# Type: cell-based
# Particulars: FGFR3 > FGFR1 selectivity ratio in Ba/F3 FGFR fusion cell based assays
Recorded endpoint: Ba/F3 FGFR1/FGFR3 Selectivity

>>> measured_value("C[C@@H](Oc1ccc2[nH]nc(-c3cnc(N4CCC5(CCC(=O)N5)CC4)nc3)c2c1)c1c(Cl)cncc1Cl")
8
>>> measured_value("C[C@@H](Oc1ccc2[nH]nc(-c3cnn(C4CCOCC4)c3)c2c1)c1c(Cl)cncc1Cl")
11
>>> measured_value("C[C@@H](Oc1ccc2[nH]nc(-c3ccc(N4CC5(CCN(S(C)(=O)=O)C5)C4)nc3)c2c1)c1c(Cl)cncc1Cl [Example 115]")
14
>>> measured_value("C[C@@H](Oc1ccc2[nH]nc(-c3ccc(N4CCC5(CCCN5C)CC4)nc3)c2c1)c1c(Cl)cncc1Cl")
16
>>> measured_value("C[C@@H](Oc1ccc2[nH]nc(-c3ccc(N4CCN(S(=O)(=O)N5CCN(C)CC5)CC4)nc3)c2c1)c1c(Cl)cncc1Cl")
16
>>> measured_value("C[C@@H](Oc1ccc2[nH]nc(-c3cnn(C4CCN(C5COC5)CC4)c3)c2c1)c1c(Cl)cncc1Cl")
17
>>> measured_value("C[C@@H](Oc1ccc2[nH]nc(-c3ccc(N4CC5(C4)CS(=O)(=O)C5)nc3)c2c1)c1c(Cl)cncc1Cl")
12

###

# System: FGFR1-BCR Ba/F3 cells (Homo sapiens, UniProt P11362)
# Sequence (P11362 22-822 limits assumed, change not shown): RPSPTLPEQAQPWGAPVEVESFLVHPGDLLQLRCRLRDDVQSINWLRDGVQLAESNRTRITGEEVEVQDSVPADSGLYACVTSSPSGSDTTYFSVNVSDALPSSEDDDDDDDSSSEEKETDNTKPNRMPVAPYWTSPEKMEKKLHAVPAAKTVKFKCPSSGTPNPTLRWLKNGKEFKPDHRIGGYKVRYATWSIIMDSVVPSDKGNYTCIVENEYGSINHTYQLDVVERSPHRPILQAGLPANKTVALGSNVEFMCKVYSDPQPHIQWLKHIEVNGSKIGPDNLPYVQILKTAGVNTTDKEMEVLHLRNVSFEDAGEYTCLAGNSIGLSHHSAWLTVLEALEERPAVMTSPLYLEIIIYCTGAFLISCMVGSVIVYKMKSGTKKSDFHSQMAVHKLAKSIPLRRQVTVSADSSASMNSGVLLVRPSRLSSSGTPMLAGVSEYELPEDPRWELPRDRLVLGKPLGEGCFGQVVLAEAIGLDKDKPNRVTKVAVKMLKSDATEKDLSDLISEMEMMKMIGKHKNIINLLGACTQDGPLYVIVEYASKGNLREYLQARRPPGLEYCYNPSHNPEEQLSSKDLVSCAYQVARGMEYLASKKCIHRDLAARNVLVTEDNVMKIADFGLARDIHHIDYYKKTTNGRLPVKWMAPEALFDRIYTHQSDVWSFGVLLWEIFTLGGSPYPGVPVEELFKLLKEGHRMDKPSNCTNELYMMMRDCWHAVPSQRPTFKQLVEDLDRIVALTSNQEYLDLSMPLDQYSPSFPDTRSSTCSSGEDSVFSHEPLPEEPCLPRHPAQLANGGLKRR
# Experiment notes: Ba/F3 cell viability assay (CellTiter-Glo 2.0), FGFR1-BCR Ba/F3
# Format: cell-based
# Particulars: read-out: Ba/F3 Cells FGFR1 (IC50 nM), 48 hours, Cell Titer Glo 2.0
Measured IC50 values are reported for all entries that follow.
Recorded endpoint: IC50

>>> measured_value("C[C@@H](Oc1ccc2[nH]nc(-c3cnc(N4CCC5(CCC(=O)N5C)CC4)nc3)c2c1)c1c(Cl)cncc1Cl")
"100 to 300 nM"
>>> measured_value("C[C@@H](Oc1ccc2[nH]nc(-c3cnc(N4CC5(CCN(S(C)(=O)=O)CC5)C4)nc3)c2c1)c1c(Cl)cncc1Cl")
"100 to 300 nM"
>>> measured_value("CC(C)OC(=O)N1CCCC2(C1)CN(c1ncc(-c3n[nH]c4ccc(O[C@H](C)c5c(Cl)cncc5Cl)cc34)cn1)C2")
"> 300 nM"
>>> measured_value("Cc1ncc(Cl)c([C@@H](C)Oc2ccc3[nH]nc(-c4cnn(C5CCN(C)CC5)c4)c3c2)c1Cl")
"100 to 300 nM"
>>> measured_value("C[C@@H](Oc1ccc2[nH]nc(-c3cnn(C4CCNCC4)c3)c2c1)c1c(Cl)cncc1Cl")
"100 to 300 nM"
>>> measured_value("C[C@@H](Oc1ccc2[nH]nc(-c3ccc(N4CCC5(CCC(=O)N5C)CC4)nc3)c2c1)c1c(Cl)cncc1Cl")
"20 to 100 nM"
>>> measured_value("C[C@@H](Oc1ccc2[nH]nc(-c3ccc(N4CCC5(CCCN5C)CC4)nc3)c2c1)c1c(Cl)cncc1Cl")
"20 to 100 nM"

###

# System: FGFR1 (Homo sapiens (Human))
# Experiment notes: Kinase assay, binding constants (Kd), kinase-tagged T7 phage, qPCR
Counter-ions that a name gives are not always drawn.
Recorded endpoint: Kd

>>> measured_value("CC(C)N1CCC(n2cc(-c3n[nH]c4ccc(O[C@H](C)c5c(Cl)cncc5Cl)cc34)cn2)CC1 [Example 83]")
"1 to 20 nM"
>>> measured_value("C[C@@H](Oc1ccc2[nH]nc(-c3ccc(N4CC5(CCNCC5)OC4=O)nc3)c2c1)c1c(Cl)cncc1Cl [Example 74]")
"1 to 20 nM"
>>> measured_value("C[C@@H](Oc1cc2c(-c3cnc(N4CC5(C4)CN(S(C)(=O)=O)C5)c(C#N)c3)n[nH]c2cc1Cl)c1c(Cl)cncc1Cl [Example 359]")
"20 to 100 nM"
>>> measured_value("COC(=O)N1CC2(C1)CN(c1ccc(-c3n[nH]c4ccc(O[C@@H](C)c5c(Cl)cnc(F)c5Cl)cc34)cn1)C2 [Example 198]")
"> 300 nM"
>>> measured_value("COc1cc2[nH]nc(-c3ccc(N4CC5(COC5)C4)nc3)c2cc1O[C@H](C)c1c(Cl)cnc(C)c1Cl [Example 211]")
"1 to 20 nM"
>>> measured_value("C[C@@H](Oc1ccc2[nH]nc(-c3cnc(N4CCC5(CC4)CNC(=O)N5)nc3)c2c1)c1c(Cl)cncc1Cl [Example 53]")
"20 to 100 nM"
>>> measured_value("COc1cc2[nH]nc(-c3ccc(N4CCCC4)nc3)c2cc1O[C@H](C)c1c(Cl)cnc(C)c1Cl [Example 220]")
"20 to 100 nM"
>>> measured_value("COc1cc2[nH]nc(-c3cnc(N4CCC4)c(C#N)c3)c2cc1O[C@H](C)c1c(C)cnnc1C [Example 322]")
"100 to 300 nM"
>>> measured_value("COC(=O)N1CCC2(CC1)CN(c1ncc(-c3n[nH]c4ccc(O[C@H](C)c5c(Cl)cncc5Cl)cc34)cn1)C2 [Example 136]")
"20 to 100 nM"
>>> measured_value("C[C@@H](Oc1ccc2[nH]nc(-c3ccc(N4CCN(S(C)(=O)=O)CC4=O)nc3)c2c1)c1c(Cl)cncc1Cl [Example 39]")
"20 to 100 nM"
>>> measured_value("C[C@@H](Oc1ccc2[nH]nc(-c3ccc(N4CCNCC4)nc3)c2c1)c1c(Cl)cncc1Cl [Example 2, dihydrochloride]")
"1 to 20 nM"
>>> measured_value("Cc1ncc(Cl)c([C@@H](C)Oc2ccc3[nH]nc(-c4ccc(N5CC6(CC(O)C6)C5)nc4)c3c2)c1Cl [Example 227]")
"20 to 100 nM"
>>> measured_value("COc1cc2[nH]nc(-c3cnc(N4CC(O)C4)c(C#N)c3)c2cc1O[C@H](C)c1c(C)cnnc1C [Example 320]")
"20 to 100 nM"
>>> measured_value("Cc1ncc(Cl)c([C@@H](C)Oc2ccc3[nH]nc(-c4ccc(N5CC(C)(O)C5)nc4)c3c2)c1Cl [Example 222]")
"20 to 100 nM"

###

# System: FGFR3-BAIAP2L1 Ba/F3 cells (Homo sapiens, UniProt P22607)
# Experiment notes: Ba/F3 cell viability assay (CellTiter-Glo 2.0), FGFR3-BAIAP2L1 Ba/F3
# Format: cell-based
# Particulars: FGFR3-BAIAP2L1 Ba/F3 cells, 48 hours, Cell Titer Glo 2.0; read-out: Ba/F3 Cells FGFR3 (IC50 nM)
# Description: Experimental Purpose: Recombinant kinase fusions are transduced into parental Ba/F3, which becomes dependent upon this constitutive kinase activity for IL3-independent survival. Inhibition of kinase activity leads to cell death, which is monitored using CellTiter-Glo® 2.0 (Promega) which measures intracellular ATP concentration that in turn serves as a marker for viability. FGFR1-BCR Ba/F3 and FGFR3-BAIAP2L1 Ba/F3 were obtained from Advanced Cellular Dynamics (Seattle, WA) […]
Recorded endpoint: IC50

>>> measured_value("C[C@@H](Oc1ccc2[nH]nc(-c3ccc(N4CC5CC(C4)N5)nc3)c2c1)c1c(Cl)cncc1Cl")
"20 to 100 nM"
>>> measured_value("C[C@@H](Oc1ccc2[nH]nc(-c3ccc(N4CC5CC(C4)N5S(C)(=O)=O)nc3)c2c1)c1c(Cl)cncc1Cl")
"20 to 100 nM"

###

Measured Kd values are reported for all entries that follow.
# System: FGFR1 (Homo sapiens (Human), UniProt P11362)
# Experiment notes: Kinase assay, binding constants (Kd), kinase-tagged T7 phage, qPCR
Recorded endpoint: Kd

>>> measured_value("C[C@@H](Oc1cc2c(-c3ccc(N4CC5(C4)CN(S(C)(=O)=O)C5)nc3)n[nH]c2cc1Cl)c1c(Cl)cncc1Cl [Example 260]")
"1 to 20 nM"
>>> measured_value("C[C@@H](Oc1ccc2[nH]nc(-c3ccc(N4CC5(CCN5)C4)nc3)c2c1)c1c(Cl)cncc1Cl [Example 99]")
"1 to 20 nM"
>>> measured_value("C[C@@H](Oc1cc2c(-c3cnc(N4CC5(C4)CN(S(C)(=O)=O)C5)c(F)c3)n[nH]c2cc1F)c1c(Cl)cncc1Cl [Example 256]")
"1 to 20 nM"
>>> measured_value("C[C@H](Oc1ccc2[nH]nc(-c3ccc(N4CC5(C4)CN(S(C)(=O)=O)C5)nc3)c2c1)c1c(Cl)cncc1Cl [Example 160]")
"> 300 nM"
>>> measured_value("C[C@@H](Oc1ccc2[nH]nc(-c3ccc(Cl)nc3)c2c1)c1c(Cl)cncc1Cl [Example 18]")
"20 to 100 nM"
>>> measured_value("Cc1cnnc(C)c1[C@@H](C)Oc1ccc2[nH]nc(-c3cnc(N4CC5CC(C4)N5CC(C)(C)O)c(C#N)c3)c2c1 [Example 312]")
"1 to 20 nM"
>>> measured_value("CNCc1cc(-c2n[nH]c3cc(OC)c(O[C@H](C)c4c(Cl)cncc4Cl)cc23)cnc1N1CC2(C1)CN(S(C)(=O)=O)C2 [Example 369]")
"> 300 nM"
>>> measured_value("Cc1cnnc(C)c1[C@@H](C)Oc1ccc2[nH]nc(-c3cnc(N4CC5CC(C4)N5)c(C#N)c3)c2c1 [Example 299]")
"20 to 100 nM"
>>> measured_value("C[C@@H](Oc1ccc2[nH]nc(-c3cnc(N4CC5(CCS(=O)(=O)C5)C4)nc3)c2c1)c1c(Cl)cncc1Cl [Example 122]")
"1 to 20 nM"
>>> measured_value("C[C@@H](Oc1ccc2[nH]nc(-c3ccc(N4CC5(C4)CN(S(C)(=O)=O)C5)nc3)c2c1)c1cc(F)cc(F)c1 [Example 172]")
"100 to 300 nM"
>>> measured_value("COc1cc2[nH]nc(-c3cnc(N4CC(O)C4)c(C#N)c3)c2cc1O[C@H](C)c1c(Cl)cncc1Cl [Example 326]")
"20 to 100 nM"
>>> measured_value("COc1cc2[nH]nc(-c3cnc(N4CC5(C4)CN(S(C)(=O)=O)C5)c(F)c3)c2cc1O[C@H](C)c1c(Cl)cncc1Cl [Example 242]")
"1 to 20 nM"
>>> measured_value("Cc1cnnc(C)c1[C@@H](C)Oc1ccc2[nH]nc(-c3cnc(N4CCCC4)c(C#N)c3)c2c1 [Example 173]")
"100 to 300 nM"
>>> measured_value("Cc1cnnc(C)c1[C@@H](C)Oc1ccc2[nH]nc(-c3ccc(N4CCN5C[C@H](O)C[C@H]5C4)nc3)c2c1 [Example 176]")
"1 to 20 nM"
>>> measured_value("C[C@@H](Oc1ccc2[nH]nc(-c3ccc(N4CCC[C@@H]4CO)nc3)c2c1)c1c(Cl)cncc1Cl [Example 236]")
"20 to 100 nM"
>>> measured_value("Cc1ncc(Cl)c([C@@H](C)Oc2ccc3[nH]nc(-c4cnn(C5CCN(C6CCC6)CC5)c4)c3c2)c1Cl [Example 95]")
"1 to 20 nM"
>>> measured_value("Cc1cncc(C)c1[C@@H](C)Oc1ccc2[nH]nc(-c3ccc(N4CC5(C4)CN(S(C)(=O)=O)C5)nc3)c2c1 [Example 139]")
"20 to 100 nM"
>>> measured_value("C[C@@H](Oc1ccc2[nH]nc(-c3cnc(N4CC5(CCCNC5)C4)nc3)c2c1)c1c(Cl)cncc1Cl [Example 132]")
"1 to 20 nM"
>>> measured_value("C[C@@H](Oc1ccc2[nH]nc(-c3cnc(N4CCNCC4)nc3)c2c1)c1c(Cl)cncc1Cl [Example 11]")
"1 to 20 nM"
>>> measured_value("C[C@@H](Oc1ccc2[nH]nc(-c3cnn(C4CCS(=O)(=O)CC4)c3)c2c1)c1cc(F)cc(F)c1 [Example 171]")
"100 to 300 nM"
>>> measured_value("C[C@@H](Oc1ccc2[nH]nc(-c3ccc(N4CCC5(CC4)CN(C)CC(=O)N5)nc3)c2c1)c1c(Cl)cncc1Cl [Example 97]")
"1 to 20 nM"
>>> measured_value("C[C@@H](Oc1ccc2[nH]nc(-c3cnc(N4CCC5(CCC(=O)N5)CC4)c(F)c3)c2c1)c1c(Cl)cncc1Cl [Example 42]")
"1 to 20 nM"
>>> measured_value("COC(=O)N1CC2(C1)CN(c1ncc(-c3n[nH]c4ccc(O[C@H](C)c5c(C)cnnc5C)cc34)cn1)C2 [Example 143]")
"100 to 300 nM"
>>> measured_value("COc1cc2[nH]nc(-c3cnc(N4CC(C)(C)C4)c(S(C)(=O)=O)c3)c2cc1O[C@H](C)c1c(Cl)cncc1Cl [Example 376]")
"> 300 nM"
>>> measured_value("C[C@@H](Oc1ccc2[nH]nc(-c3ccc(N4CC5CC(C4)N5)nc3)c2c1)c1c(Cl)cncc1Cl [Example 16]")
"1 to 20 nM"
>>> measured_value("C[C@@H](Oc1ccc2[nH]nc(-c3ccc(N4CC(C)(N)C4)nc3)c2c1)c1c(Cl)cncc1Cl [Example 257]")
"1 to 20 nM"
>>> measured_value("C[C@@H](Oc1ccc2[nH]nc(-c3cnc(N4CC[C@H]4CO)c(C#N)c3)c2c1)c1c(Cl)cncc1Cl [Example 354]")
"20 to 100 nM"
>>> measured_value("C[C@@H](Oc1cc2c(-c3cnc(N4CC5(CCCS(=O)(=O)C5)C4)c(C#N)c3)n[nH]c2cc1F)c1c(Cl)cncc1Cl [Example 362]")
"20 to 100 nM"
